System: SMN2 minigene mRNA (SMN2-A minigene) in HEK293H cells
Assay: SMN2 minigene mRNA splicing RT-qPCR assay in cultured cells
Format: cell-based, human
Conditions: Homo sapiens, HEK293-H; concentration increasing full length SMN2 mRNA 1.5-fold relative to vehicle-treated cells; HEK293H cells with SMN2-A minigene, 24 hours, 7-point concentration data; read-out: EC1.5x for production of full length SMN2 mRNA
value.kind: EC (1.5-fold increase)

molecule	target.or.system	test.value
COc1ccc(-c2cc(=O)n3cc(N4C[C@@H](C)N[C@@H](C)C4)cc(C)c3n2)cc1OC [Compound 332]	SMN2 minigene mRNA (SMN2-A minigene) in HEK293H cells	0.3 to 1 µM
Cc1cc(N2CCN[C@H](C)C2)cn2c(=O)cc(-c3ccc4nn(C)cc4c3)nc12 [Compound 755]	SMN2 minigene mRNA (SMN2-A minigene) in HEK293H cells	< 0.1 µM
Cc1nc2ccc(-c3cc(=O)n4cc(N5CCN(C)CC5)ccc4c3)cc2o1 [Compound 323]	SMN2 minigene mRNA (SMN2-A minigene) in HEK293H cells	0.1 to 0.3 µM
CCc1nc(C)cn2nc(-c3cc(=O)n4cc(N5CCC(N(CC)CC)CC5)ccc4n3)cc12 [Compound 551]	SMN2 minigene mRNA (SMN2-A minigene) in HEK293H cells	0.1 to 0.3 µM
C[C@@H]1CN(c2ccc3nc(-c4cnc5c(ccn5C)c4)cc(=O)n3c2)C[C@H](C)N1 [Compound 130]	SMN2 minigene mRNA (SMN2-A minigene) in HEK293H cells	1 to 3 µM
COc1ccc(-c2cc(=O)n3cc(N4CCNCC4)ccc3c2)cc1OC [Cpd 106]	SMN2 minigene mRNA (SMN2-A minigene) in HEK293H cells	0.3 to 1 µM
Cc1cn2cc(-c3cc(=O)n4cc(N5CCN(C(C)C)[C@@H](C)C5)ccc4n3)cc(Cl)c2n1 [Compound 498]	SMN2 minigene mRNA (SMN2-A minigene) in HEK293H cells	< 0.1 µM
CCN1CCN(c2ccc3nc(-c4ccc5nc(C)oc5c4)cc(=O)n3c2)CC1 [Compound 202]	SMN2 minigene mRNA (SMN2-A minigene) in HEK293H cells	0.3 to 1 µM
COc1ccc(-c2cc(=O)n3cc(N4CCN(C)CC4)cc(F)c3n2)cc1OC [Compound 40]	SMN2 minigene mRNA (SMN2-A minigene) in HEK293H cells	3 to 30 µM
Cc1cn2nc(-c3cc(=O)n4cc(N5CCN(CCO)[C@H](C)C5)cc(C)c4n3)cc2c(C)n1 [Compound 673]	SMN2 minigene mRNA (SMN2-A minigene) in HEK293H cells	< 0.1 µM
O=c1cc(-c2ccc(OCC(F)(F)F)c(F)c2)nc2ccc(N3CCNCC3)cn12 [Compound 154]	SMN2 minigene mRNA (SMN2-A minigene) in HEK293H cells	1 to 3 µM
Cc1cc(N2CCN[C@@H](C)C2)cn2c(=O)cc(-c3ccc4nn(C)cc4c3)nc12 [Compound 756]	SMN2 minigene mRNA (SMN2-A minigene) in HEK293H cells	< 0.1 µM
C[C@H]1CN(c2ccc3nc(-c4ccc(N(C)C)cc4)cc(=O)n3c2)CCN1 [Compound 54]	SMN2 minigene mRNA (SMN2-A minigene) in HEK293H cells	1 to 3 µM
CCN(CC)C1CN(c2ccc3nc(-c4cc5c(C)nc(C)cn5n4)cc(=O)n3c2)C1 [Compound 758]	SMN2 minigene mRNA (SMN2-A minigene) in HEK293H cells	0.3 to 1 µM
Cc1cn2nc(-c3cc(=O)n4cc(N5CCNCC5)ccc4n3)cc2cn1 [Compound 420]	SMN2 minigene mRNA (SMN2-A minigene) in HEK293H cells	< 0.1 µM
COc1ccc(-c2cc(=O)n3cc(N4CCC(N(C)C)C4)ccc3c2)cc1F (stereo not drawn) [Compound 200]	SMN2 minigene mRNA (SMN2-A minigene) in HEK293H cells	1 to 3 µM
Cc1nc2ccc(-c3cc(=O)n4cc(C5=CCN(C)CC5)ccc4n3)cc2s1 [Compound 392]	SMN2 minigene mRNA (SMN2-A minigene) in HEK293H cells	0.1 to 0.3 µM
Cc1cn2ccc(-c3cc(=O)n4cc(N5CCNCC5)ccc4n3)cc2n1 [Compound 555]	SMN2 minigene mRNA (SMN2-A minigene) in HEK293H cells	1 to 3 µM
Cc1nc2ccc(-c3cc(=O)n4cc(N5CCC(N)CC5)ccc4n3)cc2o1 [Compound 242]	SMN2 minigene mRNA (SMN2-A minigene) in HEK293H cells	< 0.1 µM
Cc1cn2cc(-c3cc(=O)n4cc(C5CCN(C(C)C)CC5)ncc4n3)ccc2n1 [Compound 627]	SMN2 minigene mRNA (SMN2-A minigene) in HEK293H cells	0.1 to 0.3 µM
CCN1CCC(c2ccc3nc(-c4cc5c(C)nc(C)cn5n4)cc(=O)n3n2)CC1 [Compound 514]	SMN2 minigene mRNA (SMN2-A minigene) in HEK293H cells	0.1 to 0.3 µM
CCN1CCC(c2cn3c(=O)cc(-c4ccc5nc(C)cn5c4)nc3cn2)CC1 [Compound 580]	SMN2 minigene mRNA (SMN2-A minigene) in HEK293H cells	< 0.1 µM
CCc1cc(C2=CCNCC2)cn2c(=O)cc(-c3ccc(OC)c(OC)c3)nc12 [Compound 408]	SMN2 minigene mRNA (SMN2-A minigene) in HEK293H cells	< 0.1 µM
CCc1cc(-c2cc(=O)n3cc(N4CCN(C5CCC5)[C@@H](C)C4)ccc3n2)cn2cc(C)nc12 [Compound 652]	SMN2 minigene mRNA (SMN2-A minigene) in HEK293H cells	< 0.1 µM
Cc1cn2nc(-c3cc(=O)n4cc(N5CCCN(C)CC5)ccc4n3)cc2c(C)n1 [Compound 334]	SMN2 minigene mRNA (SMN2-A minigene) in HEK293H cells	< 0.1 µM
CCN1CCC(c2ccc3nc(-c4cc(C)c5nn(C)cc5c4)cc(=O)n3c2)CC1 [Compound 753]	SMN2 minigene mRNA (SMN2-A minigene) in HEK293H cells	< 0.1 µM
Cc1cn2cc(-c3cc(=O)n4cc(N5CCN[C@H](C)C5)ccc4n3)cc(C3CC3)c2n1 [Compound 715]	SMN2 minigene mRNA (SMN2-A minigene) in HEK293H cells	< 0.1 µM
COc1cncc(-c2cc(=O)n3cc(N4CCNCC4)ccc3n2)c1 [Compound 229]	SMN2 minigene mRNA (SMN2-A minigene) in HEK293H cells	0.3 to 1 µM
Cc1nc2ccc(-c3cc(=O)n4cc(N5CC[C@@H](N(C)C)C5)ccc4n3)cc2o1 [Compound 264]	SMN2 minigene mRNA (SMN2-A minigene) in HEK293H cells	< 0.1 µM
Cc1cn2cc(-c3cc(=O)n4cc(C5CCN(C(C)C)CC5)ccc4n3)cc(Cl)c2n1 [Compound 519]	SMN2 minigene mRNA (SMN2-A minigene) in HEK293H cells	< 0.1 µM
CC(C)N1CCC(c2ccc3nc(-c4ccc5nn(C)cc5c4)cc(=O)n3c2)CC1 [Compound 608]	SMN2 minigene mRNA (SMN2-A minigene) in HEK293H cells	0.1 to 0.3 µM
CCN1CC=C(c2ccc3nc(-c4ccc5nc(C)oc5c4)cc(=O)n3n2)CC1 [Compound 493]	SMN2 minigene mRNA (SMN2-A minigene) in HEK293H cells	< 0.1 µM
Cc1cn2cc(-c3cc(=O)n4cc(N5CCNCC5)ccc4n3)cc(C(F)(F)F)c2n1 [Compound 733]	SMN2 minigene mRNA (SMN2-A minigene) in HEK293H cells	< 0.1 µM
